- ASSAY_TARGET: A1-adenosine receptors (Rattus norvegicus, UniProt P25099)
- Construct: rat cerebral cortex membranes; from tissue; host or cells: rat cerebral cortex membranes
- Sequence (P25099 whole entry): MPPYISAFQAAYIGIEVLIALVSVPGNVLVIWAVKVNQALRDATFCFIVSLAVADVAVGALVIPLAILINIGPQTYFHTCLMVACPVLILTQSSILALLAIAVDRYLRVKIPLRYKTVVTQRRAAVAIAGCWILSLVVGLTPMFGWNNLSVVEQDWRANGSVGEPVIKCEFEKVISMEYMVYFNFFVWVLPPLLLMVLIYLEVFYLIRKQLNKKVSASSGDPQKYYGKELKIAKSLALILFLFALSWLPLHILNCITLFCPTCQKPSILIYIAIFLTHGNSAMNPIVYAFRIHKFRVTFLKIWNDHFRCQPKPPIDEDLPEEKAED
- ASSAY: Competitive binding assay at A1-adenosine receptors, rat cerebral cortex membranes ([3H]PIA or [3H]CHA)
- MEASUREMENT_CONDITIONS: rat; [3H]PIA; read-out: Ki, inhibition of binding of [3H]PIA at A1-receptors
Where a name gives a salt, the structure may show the parent alone.
EXPERIMENTAL_ENDPOINT: Ki (nM)

molecule=CCNC(=O)[C@H]1O[C@@H](n2cnc3c(N)nc(NCCc4ccc(CCC(=O)NCCN)cc4)nc32)[C@H](O)[C@@H]1O assay_target="A1-adenosine receptors (Rattus norvegicus, UniProt P25099)" assay_value=235
molecule=CCNC(=O)[C@H]1O[C@@H](n2cnc3c(N)nc(NCCc4ccc(CCC(=O)NCCNC(=O)c5cccc(N)c5)cc4)nc32)[C@H](O)[C@@H]1O assay_target="A1-adenosine receptors (Rattus norvegicus, UniProt P25099)" assay_value=1340

a. CCNC(=O)[C@H]1O[C@@H](n2cnc3c(N)nc(NCCc4ccc(CCC(=O)NCCNC(=O)Cc5ccc(N)cc5)cc4)nc32)[C@H](O)[C@@H]1O
b. CCNC(=O)[C@H]1O[C@@H](n2cnc3c(N)nc(NCCc4ccc(CCC(=O)NCCNC(=S)Nc5ccc(S(=O)(=O)O)cc5)cc4)nc32)[C@H](O)[C@@H]1O [Compound 13, sodium salt]
(Q) Which of the two gives a bigger number for Ki: a or b ? Refer to your chosen item by its label in the answer.
(A) b
(b: 3780 nM, a: 1340 nM)

====

- Test system: A2-adenosine receptors
- ASSAY: Competitive binding assay in bovine brain using 125I-PAPA-APEC (striatal membranes)
- MEASUREMENT_CONDITIONS: ratio of Ki at A1-receptors (rat) versus Ki in the 125I-PAPA-APEC assay (bovine)
- Procedure: The filters were washed with three×3 ml aliquots of pH 7.2 buffer containing 50 mM HEPES, 10 mM Mg^+2, and 0.05% CHAPS. The filters were placed in polypropylene tubes and counted in a Packard gamma counter.
Structures can show the parent of a compound that is named as a salt.
EXPERIMENTAL_ENDPOINT: Ki (A1)/K1 (A2)

compound=CCNC(=O)[C@H]1O[C@@H](n2cnc3c(N)nc(NCCc4ccc(CCC(=O)NCCN)cc4)nc32)[C@H](O)[C@@H]1O assay_target="A2-adenosine receptors" assay_value=16
compound=CCNC(=O)[C@H]1O[C@@H](n2cnc3c(N)nc(NCCc4ccc(CCC(=O)NCCNC(=S)Nc5cccc(N=C=S)c5)cc4)nc32)[C@H](O)[C@@H]1O assay_target="A2-adenosine receptors" assay_value=11
compound=CCNC(=O)[C@H]1O[C@@H](n2cnc3c(N)nc(NCCc4ccc(CCC(=O)NCCNC(=O)CCc5ccc(O)cc5)cc4)nc32)[C@H](O)[C@@H]1O assay_target="A2-adenosine receptors" assay_value=72
compound=CCNC(=O)[C@H]1O[C@@H](n2cnc3c(N)nc(NCCc4ccc(CCC(=O)NCCNC(=S)Nc5ccc(N=C=S)cc5)cc4)nc32)[C@H](O)[C@@H]1O assay_target="A2-adenosine receptors" assay_value=39

1. CCNC(=O)[C@H]1O[C@@H](n2cnc3c(N)nc(NCCc4ccc(CCC(=O)NCCNC(=O)Cc5cccs5)cc4)nc32)[C@H](O)[C@@H]1O
2. CCNC(=O)[C@H]1O[C@@H](n2cnc3c(N)nc(NCCc4ccc(CCC(=O)NCCNC(=S)Nc5ccc(S(=O)(=O)O)cc5)cc4)nc32)[C@H](O)[C@@H]1O [Compound 13, sodium salt]
(Q) Min Ki (A1)/K1 (A2)? 1 | 2 Refer to your chosen item by its label in the answer.
(A) 1

Origin of the recorded values: patent US5280015A
